Experimental system: Platelet-derived growth factor receptor alpha (Homo sapiens, UniProt P16234)
Sequence (P16234 whole entry): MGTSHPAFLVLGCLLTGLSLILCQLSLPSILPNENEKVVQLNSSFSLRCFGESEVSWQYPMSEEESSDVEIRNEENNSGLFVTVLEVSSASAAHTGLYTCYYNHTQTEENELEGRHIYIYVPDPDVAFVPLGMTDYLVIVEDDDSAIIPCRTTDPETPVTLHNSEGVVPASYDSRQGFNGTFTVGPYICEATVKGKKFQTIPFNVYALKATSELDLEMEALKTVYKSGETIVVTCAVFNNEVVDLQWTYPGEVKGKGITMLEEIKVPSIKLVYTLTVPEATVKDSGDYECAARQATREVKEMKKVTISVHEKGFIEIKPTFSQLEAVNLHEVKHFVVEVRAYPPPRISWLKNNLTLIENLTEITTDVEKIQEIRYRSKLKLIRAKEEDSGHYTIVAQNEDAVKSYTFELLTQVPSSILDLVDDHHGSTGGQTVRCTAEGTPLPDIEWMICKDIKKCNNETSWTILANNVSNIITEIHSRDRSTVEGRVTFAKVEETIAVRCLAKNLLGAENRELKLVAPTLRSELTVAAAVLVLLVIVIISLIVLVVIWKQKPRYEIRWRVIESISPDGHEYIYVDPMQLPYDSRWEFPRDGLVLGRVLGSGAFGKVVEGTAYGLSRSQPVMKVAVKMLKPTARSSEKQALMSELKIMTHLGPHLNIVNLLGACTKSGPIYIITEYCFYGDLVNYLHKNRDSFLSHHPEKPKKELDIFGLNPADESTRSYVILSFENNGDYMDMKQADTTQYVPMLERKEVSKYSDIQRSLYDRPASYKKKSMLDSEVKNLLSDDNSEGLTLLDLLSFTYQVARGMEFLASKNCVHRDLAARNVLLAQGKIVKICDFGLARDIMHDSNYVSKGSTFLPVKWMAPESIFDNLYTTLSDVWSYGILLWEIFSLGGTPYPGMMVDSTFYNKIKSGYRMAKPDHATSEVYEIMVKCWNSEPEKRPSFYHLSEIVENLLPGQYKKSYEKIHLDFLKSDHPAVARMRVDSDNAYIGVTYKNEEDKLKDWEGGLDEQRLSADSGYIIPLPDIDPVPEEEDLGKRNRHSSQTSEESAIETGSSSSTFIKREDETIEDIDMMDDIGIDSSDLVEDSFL
Reported metric: pIC50
Scale for pIC50: -log10 of concentration given in mol/L; no unit attached.

Bench note, Platelet-derived growth factor receptor alpha (Homo sapiens, UniProt P16234): entry Cn1cc(-c2ccc3c(N4CCN(c5ncc(C(O)Cc6ccccc6)cn5)CC4)cnn3c2)cn1 (configuration not stated) , its pIC50 = 6.97
